Data origin, for the record: paper PMC5540273

Would you kindly list %Inh for each of these compounds?
# System: GRK4;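 also: KINOMEscan kinase panel screen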
# cond: concentration: 1 μM, replicates: in singlicate; n = 1
Write down the value, and be sure its unit follows.

>>> df
                                   compound  assay_value
0  FC(F)(F)c1ccc(-c2cc(-c3c[nH]nc3-c3ccccn3)ccn2)cc1          14%
1  Cc1ccc(C)c(NC(=O)NCCNc2ccnc(Nc3ccc(F)cc3)n2)c1           0%
2    Oc1ccc2ncnc(Nc3ccc(OCc4ccccc4)cc3)c2c1          18%
3  Fc1ccc(Nc2nccc(-c3c(-c4ccc(Cl)cc4)nn4ncccc34)n2)cc1F          21%
4  Cc1ccc(NC(=O)c2cccc(C#N)c2)cc1-c1ccc(C(=O)Nc2ccncc2)cc1          11%

Lab note: each compound below needs its %Inh filled in.
1. COc1cc2ncnc(Nc3ccc(OCc4ccccc4Br)c(Cl)c3)c2cc1OC.Cl
2. CN1c2ccc(-c3ccc(C(=O)NCCO)cc3)cc2-c2[nH]ncc2S1(=O)=O
3. Nc1nc(-c2ccc3c(N)n[nH]c3c2)cc(N2CCCCC2)n1
4. COc1ccc(Nc2nccc(N3CCC(NC(=O)Nc4ccc5c(c4)OCO5)C3)n2)cc1 (centres unmarked)
5. NC(=O)c1sc(-n2cnc3ccccc32)cc1OCc1ccccc1F
6. O=C(Nc1ccccc1)Nc1ccc(Oc2ccc3nccn3n2)cc1
7. CC(=O)Nc1n[nH]c2ncc(-c3ccccc3)cc12
8. O=c1cc(N2CCOCC2)nc2n(Cc3cccc(Cl)c3)ccn12

# output
0%
1%
0%
15%
7%
17%
18%
47%

# input Entry COC(=O)c1cccc(NC(=O)NCCNc2ccnc(Nc3ccc(F)cc3)n2)c1 has what %Inh?
# output 2%
